Quick reference for Kd among some binders
tested_target: fTW, fluorescently labelled H14 foldamer TW
assay_name: fluorescence polarisation; direct FP: S100 protein diluted in 50 nM labeled foldamer, 20 mM HEPES pH 7.5, 150 mM NaCl, 1 mM CaCl2, 0.5 mM TCEP, 0.01% Tween20; quadratic fit (ProFit); detection threshold Kd 1 mM

{"binder": "S100A3 (natural protein) MARPLEQAVAAIVCTFQEYAGRCGDKYKLCQAELKELLQKELATWTPTEFRECDYNKFMSVLDTNKDCEVDFVEYVRSLACLCLYCHEYFKDCPSEPPCSQ", "Kd": "> 1000 µM"}
{"binder": "S100A11 (natural protein) MAKISSPTETERCIESLIAVFQKYAGKDGYNYTLSKTEFLSFMNTELAAFTKNQKDPGVLDRMMKKLDTNSDGQLDFSEFLNLIGGLAMACHDSFLKAVPSQKRT", "Kd": "570 µM"}
